Listed next: entries and their corresponding melting point.
Structures can show the parent of a compound that is named as a salt.

// solved cases for melting point follow
> print(dat)
                                   compound  reported.result
1  CCCCCCCCCCCCCCCCCC(=O)OCCC[N+](C)(C)C (as salt: iodide)    116 to 118 °C
2  CCCCCCCCCCCCCCCC(=O)OCCC[N+](C)(C)C (as salt: iodide)    116 to 118 °C
3  CCCCCCCCCCCCCC(=O)OCCC[N+](C)(C)CCCC (as salt: iodide)      87 to 89 °C
4  CCCCCCCC(=O)OCCC[N+](C)(C)C (as salt: iodide)    107 to 109 °C
5  CCCCCCCCCCCC(=O)OCCC[N+](C)(C)C (as salt: iodide)    121 to 124 °C

Note down melting point recorded for CCCCCCCCCCCCCC(=O)OCCC[N+](C)(C)CCCCCC (as salt: iodide)
78 to 79 °C

Note down melting point recorded for CCCCCCCCCCCCCC(=O)OCCC[N+](C)(C)CCCCC (as salt: iodide)
90 to 91 °C

Note down melting point recorded for CCCCCCCCCCCCCC(=O)OCCOCC[N+](C)(C)C (as salt: iodide)
92 to 94 °C

Note down melting point recorded for CCCCCCCCCCCCCC(=O)OCCC[N+](C)(C)CC (as salt: iodide)
60 to 62 °C

Note down melting point recorded for CCCCCCCCCCCCCC(=O)OCCC[N+](C)(C)CCC (as salt: iodide)
80 to 82 °C

Note down melting point recorded for CCCCCCCCCCCCCC(=O)OCCC[N+](C)(C)Cc1ccccc1 (as salt: chloride)
93 to 95 °C

Note down melting point recorded for CCCCCCCCCCCCCC(=O)OCCC[N+](C)(C)C (as salt: iodide)
118 to 120 °C

Note down melting point recorded for CCCCCCCCCCCCCC(=O)OCCC[N+](C)(C)CCCCCCCCCC (as salt: iodide)
103 to 104 °C

====

# System: Staphylococcus aureus (ATCC 6538)
# test: Stand-alone biocidal test without organic soil
# Assay type: cell-based
# setup conditions: 25 ppm in BBS, without organic soil, 1 hr.
result type: Stand-alone biocidal result (microbial log reduction) S. aureus

> print(dat)
                            molecule.smiles  reported.result
1               CCCCCCCC(=O)OCCC[N+](C)(C)C             TNTC
2           CCCCCCCCCCCC(=O)OCCC[N+](C)(C)C             TNTC
3  CCCCCCCCCCCCCC(=O)OCCC[N+](C)(C)CCCCCCCCCC              3.8
4         CCCCCCCCCCCCCC(=O)OCCC[N+](C)(C)C             >4.7
5       CCCCCCCCCCCCCC(=O)OCCOCC[N+](C)(C)C             >4.8
6  CCCCCCCCCCCCCC(=O)OCCC[N+](C)(C)Cc1ccccc1              4.6
7      CCCCCCCCCCCCCC(=O)OCCC[N+](C)(C)CCCC             >4.8

Okay, next one:
Note down Stand-alone biocidal result (microbial log reduction) S. aureus recorded for CCCCCCCCCCCCCCCCCC(=O)OCCC[N+](C)(C)C
3.5

Each recorded value in this set is attributed to patent US20040115160A1.
